Each item that follows carries a reported log10 Ki.
molecular target: CB2 receptor (Mus musculus); construct: membranes were prepared from frozen mouse spleen; from tissue; host or cells: mouse spleen; assay: CB2 receptor binding, [3H] CP-55,940 displacement, mouse spleen membranes; details: TABLE 2; mouse spleen membranes; [3H] CP-55,940; read-out: Kl CB2 (converted)
Sequence (P47936 whole entry): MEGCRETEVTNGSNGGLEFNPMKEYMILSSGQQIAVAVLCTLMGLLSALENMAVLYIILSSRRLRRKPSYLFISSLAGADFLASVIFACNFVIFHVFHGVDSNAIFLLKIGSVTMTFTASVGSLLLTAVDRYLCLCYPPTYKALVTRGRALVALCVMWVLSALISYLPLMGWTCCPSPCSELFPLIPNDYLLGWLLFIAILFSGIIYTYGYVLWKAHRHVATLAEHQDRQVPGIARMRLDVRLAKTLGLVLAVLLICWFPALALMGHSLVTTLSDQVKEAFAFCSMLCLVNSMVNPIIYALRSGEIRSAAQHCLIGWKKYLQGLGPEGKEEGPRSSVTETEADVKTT
measured parameter: log10 Ki (log10 of the value in nM)

1. CC(=O)OCCCn1cc(C(=O)c2cccc3ccccc23)c2ccccc21
2.01
2. CCCCCn1c(C)c(C(=O)c2ccc(N(C)C)c3ccccc23)c2ccccc21
1.27
3. Cc1c(C(=O)c2ccccc2I)c2ccccc2n1CCCCCF
0.58
4. O=C(c1cccc2ccccc12)c1cn(CCCCCF)c2ccccc12
0.41
5. CC(=O)OCCCCCn1c(C)c(C(=O)c2ccccc2I)c2ccccc21
3.01
6. O=C(c1cccc2ccccc12)c1cn(CCCCCO)c2cc(I)ccc12
1.24
7. Cc1c(C(=O)c2ccccc2I)c2ccccc2n1CCCCCN=C=S
1.47
8. CCCCCn1cc(C(=O)c2cc(I)ccc2I)c2ccccc21
2.18
9. N#CCCCCn1cc(C(=O)c2cccc3ccccc23)c2ccccc21
0.17
10. CCCCCn1c(C)c(C(=O)c2ccccc2I)c2ccccc21
1.59
11. Cc1ccc(S(=O)(=O)OCCCCCn2c(C)c(C(=O)c3ccccc3I)c3ccccc32)cc1
3.47
12. CC(=O)OCCCCn1cc(C(=O)c2cccc3ccccc23)c2ccccc21
2.00
13. O=C(c1cccc2ccccc12)c1cn(CCCN=C=S)c2ccccc12
2.37
14. Cc1ccc(S(=O)(=O)OCCCCCn2cc(C(=O)c3ccccc3I)c3ccccc32)cc1
3.05
15. O=C(c1cccc2ccccc12)c1cn(CCCCI)c2ccccc12
1.02
16. CCCCCn1cc(C(=O)c2cc([N+](=O)[O-])ccc2I)c2ccccc21
1.36
17. CC(=O)OCCCCCn1cc(C(=O)c2cccc3ccccc23)c2ccc([N+](=O)[O-])cc21
2.19
18. CC(=O)OCCCCCn1cc(C(=O)c2ccccc2I)c2ccccc21
3.18
19. O=C(c1ccccc1I)c1cn(CCCCCN=C=S)c2ccccc12
2.04
20. O=C(c1cccc2ccccc12)c1cn(CCCCF)c2ccccc12
1.49
